tested on: Staphylococcus sp.; assay: in vitro antibacterial evaluation, MIC by broth dilution; format: cell-based; details: strain GC 4541; broth dilution, 18 hours at 35° C.
Please provide measured MIC Staphylococcus aureus (GC 4541) for the entries that follow.
Entry rule: numbers only, all in µg/mL.

Incoming: Respond only with MIC Staphylococcus aureus (GC 4541) recorded for CC(C)CC(=O)OC1C(O)C(OC2C(CO)OC(Oc3ccc(CC4NC(=O)C(C(C)c5ccccc5)NC(=O)CNC(=O)C(CO)NC(=O)C(C(O)C5CNC(=N)N5C5OC(CO)C(O)C(O)C5O)NC(=O)C(C(O)C5CNC(=N)N5)NC4=O)cc3)C(O)C2O)OC2COC3(OC21)C1CC2CC(C1)CC3C2 (centres unmarked) [Example 218]
Outgoing: 4

Incoming: Respond only with MIC Staphylococcus aureus (GC 4541) recorded for CC(c1ccc(Cl)cc1)C1NC(=O)CNC(=O)C(CO)NC(=O)C(C(O)C2CNC(=N)N2C2OC(CO)C(O)C(O)C2O)NC(=O)C(C(O)C2CNC(=N)N2)NC(=O)C(Cc2ccc(OC3OC(CO)C(OC4OC5COC(C6CCCCC6)OC5C(O)C4O)C(O)C3O)cc2)NC1=O (centres unmarked) [Example 193]
Outgoing: 0.5

====

tested on: Staphylococcus sp.; experiment: in vitro antibacterial evaluation, MIC by broth dilution; format: cell-based; conditions: broth dilution, 18 hours at 35° C.; strain GC 4546
Each record is given 1 if its reported MIC Staphylococcus haemolyticus (GC 4546) is strictly below 2 µg/mL. Records at or above 2 µg/mL are given -1.

Incoming: Determine whether this molecule shows MIC Staphylococcus haemolyticus (GC 4546) lower than 2 µg/mL (ties excluded): Cc1cccc(C2OCC3OC(OC4C(CO)OC(Oc5ccc(CC6NC(=O)C(C(C)c7ccccc7)NC(=O)CNC(=O)C(CO)NC(=O)C(C(O)C7CNC(=N)N7C7OC(CO)C(O)C(O)C7O)NC(=O)C(C(O)C7CNC(=N)N7)NC6=O)cc5)C(O)C4O)C(O)C(O)C3O2)c1 (stereo not shown)
Outgoing: 1

Incoming: Determine whether this molecule shows MIC Staphylococcus haemolyticus (GC 4546) lower than 2 µg/mL (ties excluded): CC(C)CC(=O)OC1C(O)C(CO)OC(OC2C(CO)OC(Oc3ccc(CC4NC(=O)C(C(C)c5cccs5)NC(=O)CNC(=O)C(CO)NC(=O)C(C(O)C5CNC(=N)N5C5OC(CO)C(O)C(O)C5O)NC(=O)C(C(O)C5CNC(=N)N5)NC4=O)cc3)C(O)C2O)C1O (stereo not shown) [Example 265b]
Outgoing: -1

Incoming: Determine whether this molecule shows MIC Staphylococcus haemolyticus (GC 4546) lower than 2 µg/mL (ties excluded): CC(c1ccccc1)C1NC(=O)CNC(=O)C(CO)NC(=O)C(C(O)C2CNC(=N)N2C2OC(CO)C(O)C(O)C2O)NC(=O)C(C(O)C2CNC(=N)N2)NC(=O)C(Cc2ccc(OC3OC(CO)C(OC4OC(COC(=O)OCc5ccccc5)C(O)C(O)C4O)C(O)C3O)cc2)NC1=O (stereo not shown) [Example 101a]
Outgoing: 1

Incoming: Determine whether this molecule shows MIC Staphylococcus haemolyticus (GC 4546) lower than 2 µg/mL (ties excluded): COc1ccc2cc(COCC3OC(OC4C(CO)OC(Oc5ccc(CC6NC(=O)C(C(C)c7ccccc7)NC(=O)CNC(=O)C(CO)NC(=O)C(CC7CNC(=N)N7C7OC(CO)C(O)C(O)C7O)NC(=O)C(CC7CNC(=N)N7)NC6=O)cc5)C(O)C4O)C(O)C(O)C3O)ccc2c1 (stereo not shown)
Outgoing: -1

Incoming: Determine whether this molecule shows MIC Staphylococcus haemolyticus (GC 4546) lower than 2 µg/mL (ties excluded): CC(c1ccccc1)C1NC(=O)CNC(=O)C(CO)NC(=O)C(C(O)C2CNC(=N)N2C2OC(CO)C(O)C(O)C2O)NC(=O)C(C(O)C2CNC(=N)N2)NC(=O)C(Cc2ccc(OC3OC(CO)C(OC4OC5COC(c6ccc(C=Cc7ccccc7)cc6)OC5C(O)C4O)C(O)C3O)cc2)NC1=O (stereo not shown)
Outgoing: -1
